Tested on: U-251
Run Description: Inhibition of cell proliferation of human U251 cells assessed as cell viability after 72 hrs by sulforhodamine B assay
Assay type: functional, cell-based
Activity calls are given as the source filed them. The calls are words filed in the database; no cut-off is given here.

Compound	inhibition
CC1(C)CC[C@]2(C(=O)O)[C@H](O)C[C@]3(C)C(=CC[C@@H]4[C@@]5(C)CC[C@H](O[C@@H]6O[C@H](CO[C@@H]7OC[C@H](O)[C@H](O)[C@H]7O[C@@H]7OC[C@@H](O)[C@H](O)[C@H]7O)[C@@H](O)[C@H](O)[C@H]6O)C(C)(C)[C@@H]5CC[C@]43C)[C@@H]2C1	inactive
C[C@@H]1O[C@@H](O[C@H]2[C@H](OC(=O)[C@]34CCC(C)(C)C[C@H]3C3=CC[C@@H]5[C@@]6(C)CC[C@H](O[C@@H]7O[C@H](CO[C@@H]8OC[C@H](O)[C@H](O)[C@H]8O[C@@H]8OC[C@@H](O)[C@H](O)[C@H]8O)[C@@H](O)[C@H](O)[C@H]7O)C(C)(C)[C@@H]6CC[C@@]5(C)[C@]3(C)CC4)O[C@H](CO)[C@@H](O)[C@@H]2O)[C@H](O)[C@H](O)[C@H]1O[C@@H]1OC[C@@H](O)[C@H](O[C@@H]2OC[C@@H](O)[C@H](O)[C@H]2O)[C@H]1O	inactive
CC1(C)CC[C@]2(C(=O)O)CC[C@]3(C)C(=CC[C@@H]4[C@@]5(C)CC[C@H](O[C@@H]6O[C@H](CO[C@@H]7OC[C@H](O)[C@H](O)[C@H]7O[C@@H]7OC[C@@H](O)[C@H](O)[C@H]7O)[C@@H](O)[C@H](O)[C@H]6O)C(C)(C)[C@@H]5CC[C@]43C)[C@@H]2C1 [PITHEDULOSIDE C]	inactive

###

Test system: U-251
Run Description: Inhibition of cell proliferation of human U251 cells assessed as cell viability at 100 uM after 72 hrs by sulforhodamine B assay
Assay type: functional
Assay Context: U-251, 72 h, read-out: Activity
Measurement Label: viability at 100 µM (%)

Compound	Measurement Label	Measured Number
CC(C)=CCC[C@](C)(O[C@@H]1O[C@H](CO[C@H]2O[C@H](CO)[C@@H](O)[C@@H]2O)[C@@H](O)[C@H](O)[C@H]1O)[C@H]1CC[C@]2(C)[C@@H]1[C@H](O)C[C@@H]1[C@@]3(C)CC[C@H](O)C(C)(C)[C@@H]3[C@@H](O)C[C@]12C [GINSENOSIDE F5]	viability at 100 µM	102
O=c1c(O)c(-c2ccc(O)c(O)c2)oc2cc(O)cc(O)c12 [QUERCETIN]	viability at 100 µM	62.9
CC1(C)CC[C@]2(C(=O)O)CC[C@]3(C)C(=CC[C@@H]4[C@@]5(C)CC[C@H](O[C@@H]6O[C@H](CO[C@@H]7OC[C@H](O)[C@H](O)[C@H]7O[C@@H]7OC[C@@H](O)[C@H](O)[C@H]7O)[C@@H](O)[C@H](O)[C@H]6O)C(C)(C)[C@@H]5CC[C@]43C)[C@@H]2C1 [PITHEDULOSIDE C]	viability at 100 µM	104
CC(C)=CCC[C@@](C)(O)[C@H]1CC[C@]2(C)[C@@H]1[C@H](O)C[C@@H]1[C@@]3(C)CC[C@H](O)C(C)(C)[C@@H]3[C@@H](O[C@@H]3O[C@H](CO)[C@@H](O)[C@H](O)[C@H]3O[C@@H]3O[C@@H](C)[C@H](O)[C@@H](O)[C@H]3O)C[C@]12C	viability at 100 µM	99
CC(C)=CCC[C@](C)(O[C@@H]1O[C@H](CO)[C@@H](O)[C@H](O)[C@H]1O)[C@H]1CC[C@]2(C)[C@@H]1[C@H](O)C[C@@H]1[C@@]3(C)CC[C@H](O[C@@H]4O[C@H](CO)[C@@H](O)[C@H](O)[C@H]4O)C(C)(C)[C@@H]3[C@@H](O)C[C@]12C	viability at 100 µM	92.5
O=C(/C=C/c1ccc(O)c(O)c1)O[C@H]1[C@H](O)C[C@](O)(C(=O)O)C[C@H]1OC(=O)/C=C/c1ccc(O)c(O)c1	viability at 100 µM	119
CC(C)=CCC[C@](C)(O[C@@H]1O[C@H](CO[C@@H]2OC[C@H](O)[C@H](O)[C@H]2O)[C@@H](O)[C@H](O)[C@H]1O)[C@H]1CC[C@]2(C)[C@@H]1[C@H](O)C[C@@H]1[C@@]3(C)CC[C@H](O[C@@H]4O[C@H](CO)[C@@H](O)[C@H](O)[C@H]4O[C@@H]4O[C@H](CO)[C@@H](O)[C@H](O)[C@H]4O)C(C)(C)[C@@H]3CC[C@]12C [GINSENOSIDE RB2]	viability at 100 µM	77.5
O=C(CCc1ccc(O)c(O)c1)OCCc1ccc(O)c(O)c1	viability at 100 µM	55
CC(C)=CCC[C@](C)(O[C@@H]1O[C@H](CO[C@@H]2OC[C@H](O)[C@H](O)[C@H]2O)[C@@H](O)[C@H](O)[C@H]1O)[C@H]1CC[C@]2(C)[C@@H]1[C@H](O)C[C@@H]1[C@@]3(C)CC[C@H](O)C(C)(C)[C@@H]3[C@@H](O)C[C@]12C [GINSENOSIDE F3]	viability at 100 µM	104
O=C(/C=C/c1ccc(O)c(O)c1)O[C@H]1[C@H](O)C[C@@](O)(C(=O)O)C[C@H]1O	viability at 100 µM	52.8
O=C(/C=C/c1ccc(O)c(O)c1)O[C@H](Cc1ccc(O)c(O)c1)C(=O)O [ROSMARINIC ACID]	viability at 100 µM	70.8
CC(C)=CCC[C@](C)(O[C@@H]1O[C@H](CO[C@@H]2O[C@H](CO)[C@@H](O)[C@H](O)[C@H]2O)[C@@H](O)[C@H](O)[C@H]1O)[C@H]1CC[C@]2(C)[C@@H]1[C@H](O)C[C@@H]1[C@@]3(C)CC[C@H](O[C@@H]4O[C@H](CO)[C@@H](O)[C@H](O)[C@H]4O[C@@H]4O[C@H](CO)[C@@H](O)[C@H](O)[C@H]4O)C(C)(C)[C@@H]3CC[C@]12C [GINSENOSIDE RB1]	viability at 100 µM	76.1
C/C=C(\C)C(=O)O[C@H]1[C@H](O)[C@]2(COC(C)=O)[C@H](O)C[C@]3(C)C(=CC[C@@H]4[C@@]5(C)CC[C@H](O[C@@H]6O[C@H](C(=O)OC)[C@@H](O[C@@H]7O[C@H](CO)[C@@H](O)[C@H](O)[C@H]7O)[C@H](O)[C@H]6O[C@@H]6O[C@H](CO)[C@@H](O)[C@H](O)[C@H]6O)[C@](C)(CO)[C@@H]5CC[C@]43C)[C@@H]2CC1(C)C	viability at 100 µM	26.2
O=C(O)[C@H]1O[C@@H](Oc2cc3oc(-c4ccccc4)cc(=O)c3c(O)c2O)[C@H](O)[C@@H](O)[C@@H]1O [BAICALIN]	viability at 100 µM	91.8
C/C=C(/C)C(=O)O[C@H]1[C@H](O)[C@]2(CO)[C@H](O)C[C@]3(C)C(=CC[C@@H]4[C@@]5(C)CC[C@H](O[C@@H]6O[C@H](C(=O)O)[C@@H](O[C@@H]7O[C@H](CO)[C@@H](O)[C@H](O)[C@H]7O)[C@H](O)[C@H]6O[C@@H]6O[C@H](CO)[C@@H](O)[C@H](O)[C@H]6O)[C@](C)(CO)[C@@H]5CC[C@]43C)[C@@H]2CC1(C)C	viability at 100 µM	94.6

Reference for the values: ChEMBL document CHEMBL3351906
